Target under test: T1, his avi huNKG2D ECD (human, biotinylated at the avi-tag (in the ELISA))
T1 construct: Human NKG2D ECD with N-terminal H6-avi tags, forms non-covalent dimers; also called recombinant human NKG2D
T1 chain: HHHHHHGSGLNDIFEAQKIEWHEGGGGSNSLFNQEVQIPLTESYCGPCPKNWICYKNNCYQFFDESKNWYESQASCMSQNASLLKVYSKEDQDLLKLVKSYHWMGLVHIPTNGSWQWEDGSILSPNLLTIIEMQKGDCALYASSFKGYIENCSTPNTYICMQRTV
Measurement description: ELISA; biotinylated antigen on streptavidin plate
Recorded endpoint: OD max (OD)
Kindly answer with a numeric value in OD, unit omitted.

Please review the entries below; each comes with its answer.
[[record]]
binder = "anti-NKG2D antibody clone 320 (antibody, V domains shown, From transgenic rabbits; also called 320 IgG) VH: EVQLLESGGGLVQPGGSLRLSCATSGFTFSDYAMSWVRQAPGKGLEWVSYNSFSVGSTDYADSVKGRFTISRDNSKNTLYLQMNSLRAEDTAVYYCSKHSGNYYTGPFHYWGQGTLVTVSS VL: DIQLTQSPSFLSASVGDRVTITCRASQGISSYLAWYQQKPGKAPKLLIYAASSLESGVPSRFSGSGSGTDFTLTISSLQPEDFATYYCQQSYSTPITFGQGTRLEIK"
recorded_endpoint = "OD max"
value_units = "OD"
recorded_number = 2.4

[[record]]
binder = "anti-NKG2D antibody clone 001 (antibody, V domains shown, From transgenic rabbits) VH: QQLEQSGGGLVTPGGSLKLCCIGSGFDFNTYWMTWVRQAPGKGLEWIGCIHGGSSGSTYYASWVNGRFTLSRDIDQSTGCLQVNSLTAADTAMYYCARPGYRSWSKTFDLWGQGTMVTVSS VL: DIQMTQSPSSLSASVGDRVTITCRASQDISESLNWYQQKPGKAPKLLIYAASSLQSGVPSRFSGSGSGTDYTLTISSLQPEDFATYYCQQANSFPLTFGGGTKVEIK"
recorded_endpoint = "OD max"
value_units = "OD"
recorded_number = 2.5


With those in mind, consider the next binder.
Asked: OD max for anti-NKG2D antibody clone 018 (antibody, V domains shown, From transgenic rabbits) VH: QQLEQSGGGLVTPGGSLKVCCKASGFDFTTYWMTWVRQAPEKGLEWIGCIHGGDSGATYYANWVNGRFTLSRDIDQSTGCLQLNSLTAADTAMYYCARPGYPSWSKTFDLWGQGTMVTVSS VL: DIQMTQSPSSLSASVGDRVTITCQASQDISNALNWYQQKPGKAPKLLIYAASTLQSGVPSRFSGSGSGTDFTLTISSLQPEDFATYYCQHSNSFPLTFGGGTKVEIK ?
Given back: 2.3
